method_description: logP by HPLC on reversed-phase columns (C 18), EEC directive 79/831 Annex V.A8
Type: physicochemical
condition: LC-MS, acidic range, pH 2.7, 0.1% aqueous formic acid and acetonitrile
log P (**) values by entry
Form: value (number only, do not type unit).

Solved entries:
Clc1cc(Cl)cc(Cc2ccccc2-c2csc(N=C3CCCCN3)n2)c1 [compound 89]	2.43
Fc1c(-c2csc(N=C3CCCCN3)n2)cccc1C(F)(F)F [compound 26]	1.84
CC(C)(C)c1cc(Oc2ccccc2-c2csc(N=C3CCCCN3)n2)ccc1Cl [compound 12]	2.92
c1ccc(Oc2ccccc2-c2csc(N=C3CCCCN3)n2)cc1 [compound 10]	2.09

Value of log P (**) reported for the compound Fc1ccc(F)c(-c2csc(N=C3CCCCN3)n2)c1 [compound 19] is 1.58

Value of log P (**) reported for the compound CC(=O)N1CCCCC1=Nc1nc(-c2ccc(Cl)cc2)c(C)s1 [compound 42] is 3.92

Value of log P (**) reported for the compound Clc1ccc(Oc2ccccc2-c2csc(N=C3CCCN3)n2)c(Cl)c1 [compound 99] is 2.49

Value of log P (**) reported for the compound Clc1ccc(Cc2ccccc2-c2csc(N=C3CCCCN3)n2)cc1 [compound 93] is 2.17

Value of log P (**) reported for the compound c1ccc(Oc2ccc(-c3csc(N=C4CCCCN4)n3)cc2)cc1 [compound 5] is 2.17

Value of log P (**) reported for the compound C=CCOc1ccccc1-c1csc(N=C2CCCCN2)n1 [compound 22] is 1.83

Value of log P (**) reported for the compound CC(=O)N1CCCCC1=Nc1nc(-c2ccccc2Oc2ccccc2)cs1 [compound 17] is 4.41

Value of log P (**) reported for the compound Fc1ccc(Cc2ccccc2-c2csc(N=C3CCCCN3)n2)cc1 [compound 90] is 1.95

Value of log P (**) reported for the compound CC(C)(C)c1cc(Oc2ccccc2-c2csc(N=C3CCCN3)n2)ccc1Cl [compound 101] is 3.09

Value of log P (**) reported for the compound c1cc2c(cc1-c1csc(N=C3CCCCN3)n1)OCO2 [compound 28] is 1.41

The reported numbers originate from patent US20110053770A1.
